B1: Neutrophil cytosol factor 2, residues 456 to 514; numbered along this chain, P19878 (parent)
chain: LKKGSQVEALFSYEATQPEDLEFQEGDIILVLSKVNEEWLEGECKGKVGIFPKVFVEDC

- Variants of: B1
- EXPERIMENT DESCRIPTION: abundance fitness (aPCA) (normalised: wild type 0, dead -1); higher = more abundant; growth selection in yeast, the domain comes from the species named
- MEASUREMENT CONTEXT: Homo sapiens
MEASUREMENT LABEL: abundance fitness

* Q24R | -0.234
* T16R | -0.457
* K53V | -0.536
* D27M | -0.377
* E19F | -0.676
* I50V | -0.298
* L30D | 0.169
* K47G | -0.511
* V31C | -0.418
* E43V | -0.654
* N36R | -0.963
* E37N | 0.241
